Hello, the source for this data is ChEMBL document CHEMBL1201862, in case you need it.

# Tested on: ACHN
# testName: NCI tumour cell line growth inhibition, 48 h
Calls of active or inactive are those of the source. Cut-off read from the data, not from the text of the source: active = GI50 up to about 1.1 µM and inactive = higher.
// reported GI50 per item

{"compound": "Oc1ccc(O)c(Cc2ccccc2)c1", "GI50": "14.8 µM (inactive)"}
{"compound": "CO/C(=N\\N=C\\c1ccc(Cl)c(Cl)c1)c1ccncc1", "GI50": "4.99 µM (inactive)"}
{"compound": "CCOC(=O)NN(C(=O)OCC)C(C(=O)c1ccccc1)N(NC(=O)OCC)C(=O)OCC", "GI50": "> 100 µM (inactive)"}
{"compound": "COc1ccc2c(c1)CN([C@@H](C)[C@H]1CC[C@H]3[C@@H]4CC[C@H]5C[C@@H](O)CC[C@]5(C)[C@H]4CC[C@]13C)CO2", "GI50": "3.21 µM (inactive)"}
{"compound": "OCC(CCc1c[nH]c2ccccc12)c1c[nH]c2ccccc12 (stereo unspecified)", "GI50": "17.9 µM (inactive)"}
{"compound": "CC(C)(C)[Si](C)(C)OC[C@H](/C=C\\CCCC(=O)O)NC1(c2ccccc2)c2ccccc2-c2ccccc21", "GI50": "11.8 µM (inactive)"}
{"compound": "CC(CCC=O)CCOCc1ccccc1 (stereo unspecified)", "GI50": "> 100 µM (inactive)"}
{"compound": "O=C(O)CCO/N=C1/C(=C2/C(=O)Nc3ccccc32)Nc2ccccc21", "GI50": "15.2 µM (inactive)"}
{"compound": "CNC(=O)c1nn[nH]c1Sc1c([N+](=O)[O-])ncn1C", "GI50": "> 100 µM (inactive)"}
{"compound": "CCOC(=O)CCc1c(C)c2ccc(O)cc2oc1=O", "GI50": "> 100 µM (inactive)"}
{"compound": "O=C(Nc1ccccc1)OCc1nc2c([nH]1)C(=O)C=CC2=O", "GI50": "12.6 µM (inactive)"}
{"compound": "C=C(c1ccccc1)C1ON(C)CCc2cc(OC)c(OC)cc21 (stereo unspecified)", "GI50": "84.7 µM (inactive)"}
{"compound": "Cc1ccc(C(=O)/C=C2/Nc3ccc([N+](=O)[O-])cc3N/C2=C/C(=O)c2ccc(C)cc2)cc1", "GI50": "37.5 µM (inactive)"}
{"compound": "Nc1ccccc1SC(/C=C/NNC1=NN=C(c2ccccc2)C(c2ccccc2)N1)c1ccccc1 (stereo unspecified)", "GI50": "14.9 µM (inactive)"}
{"compound": "O=C(O)C1(C(=O)O)CC1", "GI50": "> 100 µM (inactive)"}
{"compound": "COC(=O)CCC12CCC(=O)C1[C@@H](C(=O)OC)C[C@H]2C(=O)OC (stereo partly specified)", "GI50": "> 100 µM (inactive)"}
{"compound": "CC(=O)c1cccc(NC(=O)C(=O)C(C(=O)NN)c2ccccc2)c1 (stereo unspecified)", "GI50": "> 100 µM (inactive)"}
{"compound": "COc1ccc(N[S+]([O-])CCCc2ccccc2)cc1 (stereo unspecified)", "GI50": "> 100 µM (inactive)"}
{"compound": "COC(=O)/C(=N\\NC(=O)c1ccccc1O)C(C#N)c1ccc(Cl)cc1 (stereo unspecified)", "GI50": "5.85 µM (inactive)"}
{"compound": "O=c1cc(-c2nc3ccccc3[nH]2)[nH]c2nc(-c3nc4ccccc4[nH]3)cc(-c3ccc(Cl)cc3)c12", "GI50": "16.6 µM (inactive)"}
{"compound": "COC(=O)/C=C1\\C(CO[Si](C)(C)C(C)(C)C)OC(n2ccc(=O)[nH]c2=O)C1O (stereo unspecified)", "GI50": "12.6 µM (inactive)"}
